- subject of test: AgLsb1
- assay: SPOT peptide array binding signal intensity (averaged, normalized) (arbitrary units (background-subtracted, floor 0; scale differs between SH3 domains)); higher = stronger binding of the SH3 domain to the peptide
Overview of reported SPOT peptide array binding signal intensity across a group of binders:
# output: bare number, no unit

Solved cases below.
{"binder": "MAMRPIPPLPTESEY", "reported result": 230}
{"binder": "NPLPKEPRLPKRKVA", "reported result": 3.25}

Q: Please look up its SPOT peptide array binding signal intensity: RVTRKRPREPKSTND
Ans: 3
